target.entity: ARAF (Homo sapiens (Human))
Sequence (P10398 whole entry): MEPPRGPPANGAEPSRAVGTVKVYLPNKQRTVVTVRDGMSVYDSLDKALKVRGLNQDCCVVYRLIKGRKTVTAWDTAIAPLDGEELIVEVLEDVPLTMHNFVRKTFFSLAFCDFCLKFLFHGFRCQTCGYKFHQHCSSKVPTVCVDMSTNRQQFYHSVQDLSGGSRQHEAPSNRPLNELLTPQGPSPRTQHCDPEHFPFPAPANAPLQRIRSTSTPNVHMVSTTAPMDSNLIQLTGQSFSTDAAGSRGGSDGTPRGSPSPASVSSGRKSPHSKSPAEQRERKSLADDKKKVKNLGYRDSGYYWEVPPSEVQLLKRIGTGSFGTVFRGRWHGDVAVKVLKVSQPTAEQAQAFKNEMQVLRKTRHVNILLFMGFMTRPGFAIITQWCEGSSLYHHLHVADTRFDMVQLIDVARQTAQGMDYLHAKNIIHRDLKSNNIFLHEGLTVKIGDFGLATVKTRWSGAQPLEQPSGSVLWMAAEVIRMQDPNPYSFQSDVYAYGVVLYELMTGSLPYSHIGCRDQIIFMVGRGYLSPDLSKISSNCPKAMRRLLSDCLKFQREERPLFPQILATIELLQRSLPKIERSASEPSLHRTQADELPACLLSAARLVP
pIC50: −log10 of the molar value.
value.kind: pIC50

compound: Nc1ncnc2c1c(-c1ccc(Oc3ccccc3)cc1)nn2C[C@H]1SSC[C@H]1O [46 B.]
experimental.result: 6.00 to 7.00

* * *

target.entity: HCK (Homo sapiens (Human), UniProt P08631)
Sequence (P08631 whole entry): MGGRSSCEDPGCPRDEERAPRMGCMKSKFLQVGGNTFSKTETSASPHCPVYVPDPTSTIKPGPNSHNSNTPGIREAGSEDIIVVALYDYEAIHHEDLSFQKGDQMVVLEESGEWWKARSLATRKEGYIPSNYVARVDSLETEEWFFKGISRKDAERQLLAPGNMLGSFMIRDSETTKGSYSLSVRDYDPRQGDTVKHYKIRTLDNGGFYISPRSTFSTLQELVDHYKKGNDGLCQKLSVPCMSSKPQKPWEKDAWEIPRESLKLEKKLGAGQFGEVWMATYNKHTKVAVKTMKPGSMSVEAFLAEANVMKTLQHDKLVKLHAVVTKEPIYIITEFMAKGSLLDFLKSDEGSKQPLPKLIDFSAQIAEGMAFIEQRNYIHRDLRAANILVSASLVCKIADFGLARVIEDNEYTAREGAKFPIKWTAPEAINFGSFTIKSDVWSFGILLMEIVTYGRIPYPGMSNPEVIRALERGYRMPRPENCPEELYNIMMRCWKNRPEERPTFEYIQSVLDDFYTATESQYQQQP
assay.protocol: Radioisotope filter binding assay
Assay type: biochemical
experimental.context: read-out: IC50 Activity Levels Against SRC Family Kinases: HCK
Method: 3. Radioisotope Filter Binding Assay: In this assay format, it directly detects the true product without the use of modified substrates or coupling enzymes (Uitdehaag, J. C., et al. Br. J. Pharmacol. 2012, 166, 858-876; Hastie, C. J., et al. Nat. Protoc. 2006, 1, 968-971) according to equation 1. Substrate+[γ−^33P]−ATP→^33P-Substrate+ADP eq 1 The protocol calls for test compound of the invention to be incubated with kinase, substrate, cofactors, and radio-isotope-labeled ATP (^33P-gamma-ATP). […]
pIC50: −log10 of the molar value.
Measured pIC50 by item

mol.smiles: Nc1ncnc2c1c(-c1ccc(Oc3ccccc3)cc1)nn2C[C@H]1SSC[C@H]1O
target.entity: HCK (Homo sapiens (Human), UniProt P08631)
pIC50: 7.00 to 8.30
//
mol.smiles: Nc1ncnc2c1c(-c1ccc(Oc3ccccc3)cc1)nn2C[C@@H]1SSC[C@H]1O
target.entity: HCK (Homo sapiens (Human), UniProt P08631)
pIC50: > 8.30
//
mol.smiles: Nc1ncnc2c1c(-c1ccc(Oc3ccccc3)cc1)nn2C[C@@H]1SSC[C@@H]1O
target.entity: HCK (Homo sapiens (Human), UniProt P08631)
pIC50: 7.00 to 8.30
//
mol.smiles: Nc1ncnc2c1c(-c1ccc(Oc3ccccc3)cc1)nn2C[C@H]1SSC[C@@H]1O
target.entity: HCK (Homo sapiens (Human), UniProt P08631)
pIC50: > 8.30
